Below, each entry is listed with its recorded growth.
Test system: SW-620 colon
ASSAY PROTOCOL: NCI-60 one-dose screen, 48 h (100 = growth as untreated, 0 = no growth, -100 = all killed)
SETUP CONDITIONS: 10 µM unless noted
About 83,000 compounds went through this panel and 20% of them were active in at least one assay; those are over-represented in the sample as a whole. The source made the active and inactive calls. Rule for the calls: active = growth percent below 10; inactive = the rest.

Consider the reported growth for these compounds:
STRUCTURE AS SMILES: O=C(CN1C(=O)/C(=C/c2ccc(Cl)cc2)SC1=S)NCCCN1CCOCC1
growth: 102% (inactive)
//
STRUCTURE AS SMILES: COc1ccc(C(=O)c2sc3nc(C)cc(C)c3c2N)cc1OC
growth: 99.5% (inactive)
//
STRUCTURE AS SMILES: Cc1cc(C)nc(SC2=C(Nc3cccc(Cl)c3)C(=O)N(Cc3ccccc3)C2=O)n1
growth: 72% [30 µM] (inactive)
//
STRUCTURE AS SMILES: COc1cccc(-c2nc3sccn3c2-c2ccnc(NCCCNS(=O)(=O)c3cccc(F)c3)c2)c1
growth: 50% (inactive)
//
STRUCTURE AS SMILES: C(=C\c1nccc2c1[nH]c1ccccc12)/c1ccccc1
growth: 14.8% (inactive)
//
STRUCTURE AS SMILES: COc1ccc(/C=C/C(=O)c2ccc(O)c(CN3CCN(c4cc5c(cc4F)c(=O)c(C(=O)O)cn5C4CC4)CC3)c2)cc1
growth: 17.5% (inactive)

Turning now to a further compound:
Given the compound CC[C@@H]1O[C@H](O[C@@H](c2cnc[nH]2)[C@H](NC(=O)c2nc([C@H](CC(N)=O)NC[C@@H](N)C(N)=O)nc(N)c2C)C(=O)N[C@H](C)[C@H](O)[C@H](C)C(=O)N[C@@H](C(=O)NCCc2nc(-c3nc(C(=O)NCCCCN=C(N)N)cs3)cs2)[C@@H](C)O)[C@H](O[C@@H]2O[C@H](CO)[C@H](O)[C@H](OC(N)=O)[C@@H]2O)[C@H](C)[C@@H]1C , what is its reported growth? 68.1% (inactive)
